// values below are pIC50; system is UniProt P24941
Scale for pIC50: -log10 of concentration given in mol/L; no unit attached.

Example molecules with recorded pIC50:
q: Returns the measured pIC50 for the input molecule. Input: Cc1cccc2c1/C(=C\c1c[nH]cn1)C(=O)N2
a: 5.96

q: Now try COc1cc2c(cc1OC)/C(=C\c1c[nH]cn1)C(=O)N2 .
a: 5.62

Further cases:
q: Returns the measured pIC50 for the input molecule. Input: O=C1Nc2c(Br)cc(Cl)cc2/C1=C\c1c[nH]cn1
a: 5.03

q: Now try O=C1Nc2ccc(F)cc2/C1=C\c1c[nH]cn1 .
a: 5.11

The reported numbers originate from the Kinase Knowledgebase extract (Sharma et al. 2016).
